Reference source for all entries: patent US5183824A

Listed here: items and their measured MIC.
- Tested on: Trichophyton sp.

Data request: Report MIC on Trichophyton sp. for this entry: CC(C)=CCC/C(C)=C/CN(C)C(Cn1ccnc1)c1ccc(Cl)cc1Cl (centres unmarked)
Data returned: 10 to 20 µg/mL

Data request: State MIC (Trichophyton sp.) of CC(C)=CCC/C(C)=C\COC(Cn1ccnc1)c1ccc(Cl)cc1Cl (centres unmarked) .
Data returned: 5 to 10 µg/mL

Data request: Report MIC on Trichophyton sp. for this entry: CC(C)=CCC/C(C)=C/COC(Cn1ccnc1)c1ccccc1[N+](=O)[O-] (centres unmarked)
Data returned: 0.16 to 5 µg/mL

Data request: Using Trichophyton sp. as the test system, report measured MIC of CC(C)=CCC/C(C)=C/COC(Cn1ccnc1)c1ccc(Cl)cc1Cl (centres unmarked) .
Data returned: 5 to 10 µg/mL

Data request: Quote MIC with test system Trichophyton sp. for CC(C)=CCC/C(C)=C/CC/C(C)=C/COC(Cn1ccnc1)c1ccc(Cl)cc1Cl (centres unmarked)
Data returned: 40 to 80 µg/mL

###

- Tested on: Candida sp.
Recorded Endpoint: MIC (µg/mL)

A: CC(C)=CCC/C(C)=C/CN(C)C(Cn1ccnc1)c1ccc(Cl)cc1Cl (centres unmarked)
B: CC(C)=CCC/C(C)=C/COC(Cn1ccnc1)c1ccccc1C(F)(F)F (centres unmarked)
Data request: // max by MIC over [ A , B ] Answer with the label corresponding to your selection.
Data returned: A

###

- Assay Procedure: Acute toxicity
- Settings: mouse, in vivo, po; dosed orally on mice
Recorded Endpoint: LD50

Data request: Provide one value: measured LD50 of CC(C)=CCC/C(C)=C/COC(Cn1ccnc1)c1ccc(Cl)cc1Cl (stereo not shown) [Compound 1]
Data returned: ≥ 1000 mg/kg

###

Quick note: these are MIC numbers for system: Trichophyton sp.

Molecule	Readout Value
CC(C)=CCC/C(C)=C/CNC(Cn1ccnc1)c1ccc(Cl)cc1Cl (stereo not drawn)	10 to 20 µg/mL
CC(C)=CCC/C(C)=C/CSC(Cn1ccnc1)c1ccc(Cl)cc1Cl (stereo not drawn)	20 µg/mL
CC(C)=CCC/C(C)=C/COC(Cn1ccnc1)c1ccccc1 (stereo not drawn)	5 µg/mL
CC(C)=CCC/C(C)=C/CO/N=C(\Cn1ccnc1)c1ccc(Cl)cc1Cl	5 to 20 µg/mL
CC(C)=CCC/C(C)=C/COC(Cn1cncn1)c1ccc(Br)cc1 (stereo not drawn)	> 80 µg/mL

Now for the molecule whose MIC we want.
Data request: Fill: MIC (Trichophyton sp.) for this molecule CC(C)=CCC/C(C)=C/COC(Cn1ccnc1)c1ccccc1C(F)(F)F (stereo not drawn)
Data returned: 1.25 to 20 µg/mL

###

Record set of MIC for target or system Candida sp..
Recorded Endpoint: MIC (µg/mL)

// worked examples, MIC included
Molecule	Output Unit	MIC
CC(C)=CCC/C(C)=C/COC(Cn1ccnc1)c1ccc(Cl)cc1Cl (stereo not drawn) [Compound 1]	µg/mL	40
CC(C)=CCC/C(C)=C/CNC(Cn1ccnc1)c1ccc(Cl)cc1Cl (stereo not drawn) [Compound 8]	µg/mL	40

P: CC(C)=CCC/C(C)=C/CO/N=C(\Cn1ccnc1)c1ccc(Cl)cc1Cl [Compound 11]
Q: CC(C)=CCC/C(C)=C/COC(Cn1ccnc1)c1ccccc1 (stereo not drawn) [Compound 5]
Data request: Record comparison, field MIC: mark the lower of P and Q . // respond with label for picked entry
Data returned: Q
